EXPERIMENTAL SYSTEM: human orexin-1 receptor (Homo sapiens)
Construct: expressed in transfected cells; host or cells: CHO (Chinese hamster ovary) cells, kept under G418 selection
EXPERIMENT DESCRIPTION: Intracellular calcium measurement (FLIPR Tetra), orexin receptor antagonistic activity, OX1
Assay type: cell-based
DETAILS: CHO cells expressing human orexin-1 receptor, 3 nM orexin-A, conditions B, normalized (*) using IC50 of on-plate reference compound
MEASURED ATTRIBUTE: IC50 (µM)
Give bare numbers, in µM.

Hi, could you look up IC50 for each item in my list?
1. COC(=O)CN(CCc1c[nH]c2ccccc12)C(=O)c1nc(C)sc1-c1cccc(Br)c1 [Example 590]
2. O=C(c1cncnc1-c1ccc(Br)c(Cl)c1)N(CCc1c[nH]c2ccccc12)CC1CC1 [Example 513]
3. CCN(CCc1c[nH]c2ccccc12)C(=O)c1cncnc1-c1cccc(OC)c1 [Example 541]
4. COc1ccc(-c2nccnc2C(=O)N(CCc2c[nH]c3c(C)cccc23)CC2CC2)cn1 [Example 437]

1: 0.468; 2: 0.036; 3: 2.93; 4: 0.043

---

EXPERIMENTAL SYSTEM: human orexin-2 receptor (Homo sapiens)
Construct: expressed in transfected cells; host or cells: CHO (Chinese hamster ovary) cells, kept under G418 selection
Sequence (O43614 whole entry): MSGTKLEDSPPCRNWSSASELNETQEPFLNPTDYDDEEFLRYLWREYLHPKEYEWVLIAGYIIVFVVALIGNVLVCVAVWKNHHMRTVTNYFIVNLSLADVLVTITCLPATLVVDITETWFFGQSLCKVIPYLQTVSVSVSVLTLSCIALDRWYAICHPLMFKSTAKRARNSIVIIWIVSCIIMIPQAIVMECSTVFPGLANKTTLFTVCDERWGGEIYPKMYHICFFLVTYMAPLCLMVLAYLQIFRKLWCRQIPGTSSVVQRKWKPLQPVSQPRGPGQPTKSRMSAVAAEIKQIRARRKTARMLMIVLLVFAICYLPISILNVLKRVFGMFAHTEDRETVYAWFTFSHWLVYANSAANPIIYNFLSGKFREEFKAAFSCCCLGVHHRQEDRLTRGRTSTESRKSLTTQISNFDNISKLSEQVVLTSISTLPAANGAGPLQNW
EXPERIMENT DESCRIPTION: Intracellular calcium measurement (FLIPR Tetra), orexin receptor antagonistic activity, OX2
Type: cell-based
DETAILS: CHO cells expressing human orexin-2 receptor, 3 nM orexin-A, conditions B, normalized (*) using IC50 of on-plate reference compound
Would you kindly list log10(IC50) for each of these compounds?
A value of 2 here means IC50 of 100 in nM, since values are log10.

Worked cases, log10(IC50) given:
SMILES INPUT: Cc1cccc(-c2ncncc2C(=O)N(CCc2c[nH]c3ccccc23)CC(F)(F)F)c1
log10(IC50): 2.11

SMILES INPUT: COC(=O)CN(CCc1c[nH]c2ccc(F)cc12)C(=O)c1cnc(C)nc1-c1ccc(Cl)c(Cl)c1
log10(IC50): 2.29

SMILES INPUT: O=C(c1ncccc1-c1cc(Cl)cnc1F)N(CCc1c[nH]c2ccc(F)cc12)CC1CC1
log10(IC50): 2.36

SMILES INPUT: CNc1nc(C(=O)N(CCc2c[nH]c3ccc(F)cc23)CC2CC2)c(-c2cccc(C)c2)s1
log10(IC50): 1.51

SMILES INPUT: CCN(CCc1c[nH]c2ccccc12)C(=O)c1cncnc1-c1cccc(OC)c1
log10(IC50): 2.18

SMILES INPUT: COc1nc(C(=O)N(CCc2c[nH]c3ccc(F)cc23)CC2CC2)c(-c2cccc(C)c2)s1
log10(IC50): 1.85

SMILES INPUT: COc1ccc2[nH]cc(CCN(CC3CC3)C(=O)c3cnc(C)nc3-c3ccccc3)c2c1C
log10(IC50): 1.68

Continue with the next compound.
Give log10(IC50) (human orexin-2 receptor (Homo sapiens)) of the following compound: `CC(C)N(CCc1c[nH]c2ccc(F)cc12)C(=O)c1nccnc1-c1ccccc1`
2.77

---

EXPERIMENTAL SYSTEM: human orexin-1 receptor (Homo sapiens)
Construct: expressed in transfected cells; host or cells: CHO (Chinese hamster ovary) cells, kept under G418 selection
Sequence (O43613 1-425): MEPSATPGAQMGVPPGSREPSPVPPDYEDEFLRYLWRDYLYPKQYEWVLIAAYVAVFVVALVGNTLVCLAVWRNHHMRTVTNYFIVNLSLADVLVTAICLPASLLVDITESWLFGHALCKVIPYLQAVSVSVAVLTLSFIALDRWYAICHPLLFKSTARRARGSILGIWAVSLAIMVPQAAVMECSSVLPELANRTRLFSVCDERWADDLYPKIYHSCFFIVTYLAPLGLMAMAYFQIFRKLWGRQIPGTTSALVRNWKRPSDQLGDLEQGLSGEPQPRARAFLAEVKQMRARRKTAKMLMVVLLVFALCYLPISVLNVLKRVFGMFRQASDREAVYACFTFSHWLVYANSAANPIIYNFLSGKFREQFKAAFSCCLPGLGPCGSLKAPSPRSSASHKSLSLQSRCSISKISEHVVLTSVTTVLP
EXPERIMENT DESCRIPTION: Intracellular calcium measurement (FLIPR Tetra), orexin receptor antagonistic activity, OX1
Type: cell-based
DETAILS: CHO cells expressing human orexin-1 receptor, 3 nM orexin-A, conditions B
MEASURED ATTRIBUTE: IC50 (µM)
Numbers only, in µM.

SMILES INPUT: COc1ccc(CCN(CC(F)(F)F)C(=O)c2nc(C)sc2-c2ccc(C)c(C)c2)cc1OC
IC50 / µM: 0.119
//
SMILES INPUT: Cc1cccc(-c2sc(N)nc2C(=O)N(CCc2c[nH]c3c(F)cccc23)CC2CC2)c1
IC50 / µM: 0.005

Hi, could you look up IC50 for each item in my list?
1. Cc1cccc(-c2sc(N)nc2C(=O)N(CCc2c[nH]c3cccc(F)c23)CC2CC2)c1
2. Cc1cccc(-c2sc(N)nc2C(=O)N(CCc2nc3ccc(Cl)cc3[nH]2)CC2CC2)c1
3. COc1cc(CCN(CC2CC2)C(=O)c2nc(C)sc2-c2ccc(C)c(C)c2)c(OC)cc1I
4. CCN(CCc1ccc(OC)c(OC)c1)C(=O)c1nc(C)sc1-c1ccc(C)c(C)c1

1: 0.009; 2: 0.139; 3: 0.157; 4: 0.036

Hi, could you look up IC50 for each item in my list?
1. COc1cccc(-c2cccnc2C(=O)N(CCc2ccc(OC)c(OC)c2)CC2CC2)c1
2. COc1cccc(-c2cnccc2C(=O)N(CCc2ccc(OC)c(OC)c2)CC2CC2)c1

[0.108, 0.282]

---

EXPERIMENTAL SYSTEM: human orexin-1 receptor (Homo sapiens)
Construct: expressed in transfected cells; host or cells: CHO (Chinese hamster ovary) cells, kept under G418 selection
EXPERIMENT DESCRIPTION: Intracellular calcium measurement (FLIPR Tetra), orexin receptor antagonistic activity, OX1
Format: cell-based
DETAILS: CHO cells expressing human orexin-1 receptor, 3 nM orexin-A, conditions A
Threshold check on IC50: strictly below 3000 nM is yes; on or above 3000 nM is no.

Take a look at these entries with their results.
COMPOUND: COc1nc(C(=O)N(CC2CC2)CC(O)c2ccc(OC)c(OC)c2)c(-c2cccc(C)c2)s1 (stereo not shown) [Example 78]
EXPERIMENTAL SYSTEM: human orexin-1 receptor (Homo sapiens)
DISCRETE LABEL: yes
//
COMPOUND: COc1ccc(CCN(CC2CC2)C(=O)c2sc(C)nc2-c2ccc(Cl)cc2)cc1OC [Example 48]
EXPERIMENTAL SYSTEM: human orexin-1 receptor (Homo sapiens)
DISCRETE LABEL: no
//
COMPOUND: COc1ccc(CCN(CC2CC2)C(=O)c2c(-c3ccccc3)nnc3ccccc23)cc1OC [Example 51]
EXPERIMENTAL SYSTEM: human orexin-1 receptor (Homo sapiens)
DISCRETE LABEL: yes
//
COMPOUND: COc1ccc(C(O)CN(CC2CC2)C(=O)c2nc(N(C)C)sc2-c2cccc(C)c2)cc1OC (stereo not shown) [Example 79]
EXPERIMENTAL SYSTEM: human orexin-1 receptor (Homo sapiens)
DISCRETE LABEL: yes

Dear reviewer, please state whether COc1ccc(CCN(CC2CC2)C(=O)c2nc(C)sc2-c2cccc(C#N)c2)cc1OC [Example 19] has IC50 strictly beneath 3000 nM.
yes

Dear reviewer, please state whether COc1ccc(CCN(CC2CC2)C(=O)c2snnc2-c2ccccc2)cc1OC [Example 53] has IC50 strictly beneath 3000 nM.
no

---

Would you kindly list IC50 for each of these compounds?
EXPERIMENTAL SYSTEM: human orexin-1 receptor (Homo sapiens)
Construct: expressed in transfected cells; host or cells: CHO (Chinese hamster ovary) cells, kept under G418 selection
EXPERIMENT DESCRIPTION: Intracellular calcium measurement (FLIPR Tetra), orexin receptor antagonistic activity, OX1
Assay type: cell-based
DETAILS: CHO cells expressing human orexin-1 receptor, 3 nM orexin-A, conditions B

COMPOUND: COCCN(CCc1ccc(OC)c(OC)c1)C(=O)c1nc(C)sc1-c1ccc(C)c(C)c1 [Example 129]
IC50: 40 nM

Hi, could you look up IC50 for each item in my list?
1. Cc1cccc(-c2sc(N)nc2C(=O)N(CCn2ccc3ccccc32)CC2CC2)c1 [Example 221]
2. CCc1nc(I)cn1CCN(CC1CC1)C(=O)c1nc(N)sc1-c1cccc(C)c1 [Example 178]
3. COc1ccc(CCN(CCO)C(=O)c2nc(C)sc2-c2cccc(F)c2)cc1OC [Example 124]

243 nM
739 nM
1470 nM

---

EXPERIMENTAL SYSTEM: human orexin-1 receptor (Homo sapiens)
Construct: expressed in transfected cells; host or cells: CHO (Chinese hamster ovary) cells, kept under G418 selection
EXPERIMENT DESCRIPTION: Intracellular calcium measurement (FLIPR Tetra), orexin receptor antagonistic activity, OX1
Format: cell-based
DETAILS: CHO cells expressing human orexin-1 receptor, 3 nM orexin-A, conditions B
MEASURED ATTRIBUTE: IC50

Worked cases, IC50 given:
SMILES INPUT: Cc1cccc(-c2sc(N)nc2C(=O)N(CCc2c[nH]c3ccc(F)cc23)CC2CC2)c1
EXPERIMENTAL SYSTEM: human orexin-1 receptor (Homo sapiens)
MEASURED ATTRIBUTE: IC50
REPORTED VALUE: 7 nM
--
SMILES INPUT: COc1ccc(CCN(C(=O)c2nc(C)sc2-c2ccc(C)c(C)c2)C2CC2)cc1OC
EXPERIMENTAL SYSTEM: human orexin-1 receptor (Homo sapiens)
MEASURED ATTRIBUTE: IC50
REPORTED VALUE: 26 nM

Hi, could you look up IC50 for each item in my list?
1. COc1ccc(CCN(CC2CC2)C(=O)c2nc(C)sc2-c2ccc(C)c(C)c2)cn1
2. CCCN(CCc1ccc(OC)c(OC)c1)C(=O)c1nc(C)sc1-c1cccc(F)c1
3. Cc1cccc(-c2sc(N)nc2C(=O)N(CCc2ccc3ccccc3c2)CC2CC2)c1

1770 nM
479 nM
171 nM

Hi, could you look up IC50 for each item in my list?
1. Cc1nc(C(=O)N(CCc2ccccc2Cl)CC2CC2)c(-c2ccc(C)c(C)c2)s1
2. COc1ccc(CCN(CC2CC2)C(=O)c2nc(C)sc2-c2ccc(C)c(C)c2)cc1C
3. COc1ccc(CCN(CC2CC2)C(=O)c2nc(C)sc2-c2ccc(C)c(C)c2)cc1SC

1: 4360 nM; 2: 447 nM; 3: 21 nM

Data origin: patent US20110212968A1
